For each entry below, report its GI50 value.
# Tested on: NCI-H23
# ASSAY_SUMMARY: NCI tumour cell line growth inhibition, 48 h
The source made the active and inactive calls. Rule as the data show it: active = GI50 up to about 1.1 µM and inactive = higher. Where a SMILES comes first, the peptide text is derived from it. [ ]: non-standard residue; d: D form. The star is where a group is joined. ξ: configuration not given here. NMeF = CN[C@@H](Cc1ccccc1)C(=O)O; NMeV = CN[C@H](C(=O)O)C(C)C; ξNMeN = CNC(CC(N)=O)C(=O)O; NMeA = CN[C@@H](C)C(=O)O; ξNMeV = CNC(C(=O)O)C(C)C; Boc = CC(C)(C)OC(=O)*

Request: Quick one: GI50 of Oc1cc(-c2ccccc2)c2ccccc2n1 ?
Response: 84.7 µM (inactive)

Request: Please report the recorded GI50 for CCOC(=O)NC(=O)c1cn(C2OC(COC(=O)CCCCCCCCC(=O)OCC3OC(n4cc(C(=O)NC(=O)OCC)c(=O)[nH]c4=O)C4OC(C)(C)OC34)C3OC(C)(C)OC32)c(=O)[nH]c1=O (configuration not stated) .
Response: > 100 µM (inactive)

Request: Recorded GI50 of COC(=O)[C@H](C)N(C)C(=O)C(CC(N)=O)N(C)C(=O)[C@H](Cc1ccccc1)N(C)C(=O)[C@@H]1CCCN1C(=O)[C@H](C(C)C)N(C)C(=O)C(C(C)C)N(C)C(=O)[C@@H](NC(=O)OC(C)(C)C)C(C)C (some centres not stated) (Boc-V[ξNMeV][NMeV]P[NMeF][ξNMeN][NMeA]-OMe) , please.
Response: > 50 µM (inactive)

Request: Dear colleague, I am looking for the recorded GI50 of the following compound: COc1ccccc1/C=C1\CCC(CN(C)C)C1=O (configuration not stated)
Response: 10.8 µM (inactive)

Request: Requested field: GI50. Item: CO/C(=N\N=C\c1ccc(OC)cc1OC)c1ccncc1
Response: > 10 µM (inactive)

Request: Give the measured GI50 of CCCn1c(C23CC4CC(CC(C4)C2)C3)nc2ccc(Cl)cc2c1=O .
Response: 50.5 µM (inactive)

Request: Given the entry CC(C)[C@H](NC(=O)[C@@H](O)[C@H](N)Cc1ccccc1)C(=O)N[C@@H](Cc1ccccc1)C(=O)O , report its measured GI50.
Response: > 100 µM (inactive)

---

# Test system: Malme-3M
# ASSAY_SUMMARY: NCI tumour cell line growth inhibition, 48 h
Active and inactive are the calls of the source. Cut-off read from the data, not from the text of the source: active = GI50 up to about 1.1 µM and inactive = higher. Where a SMILES comes first, the peptide text is derived from it. The star is where a group is joined. Boc = CC(C)(C)OC(=O)*
For each record, write down the corresponding GI50.

Request: Need GI50, item CCC12C=CCN3CCC4(c5cc(C6(C(=O)OC)CCCCCc7c6[nH]c6ccccc76)c(OC)cc5N(C)C4C(O)(C(=O)OC)C1OC(C)=O)C32 (centres undefined)
Response: 1.87 µM (inactive)

Request: Entry CCCCC(NC(=O)CC)C(=O)O (centres undefined) has what GI50?
Response: > 100 µM (inactive)

Request: Entry COC(=O)C1OC(Oc2cc(O)c3c(=O)cc(-c4ccc(O)cc4)oc3c2)C(O)C(O)C1O (centres undefined) has what GI50?
Response: > 100 µM (inactive)

Request: // lookup GI50 for O=C(O)C1C2CCC(O2)C1C(=O)N1CCCCC1 (centres undefined)
Response: 10.6 µM (inactive)

Request: Need GI50 of CC(NC(=O)C(NC(=O)OC(C)(C)C)C(C)C)C(=O)NCC(=O)O (stereo not drawn) (Boc-Val-Ala-Gly-OH; configuration not given here) , thanks.
Response: > 100 µM (inactive)

Request: Look at this compound and give its reported GI50. CCOc1ccc2nc3nc(O)nc(C)c3c(NC(C)(CO)CO)c2c1
Response: > 100 µM (inactive)

Request: Which GI50 value belongs to COc1ccc(OC)c2c3c(ccc12)C(c1ccccc1)OC3=O (centres undefined) ?
Response: 59 µM (inactive)

Request: Need GI50 of O=C1c2ccccc2C(=O)c2sc(Nc3cc(Cl)ccc3Cl)nc21 , thanks.
Response: 1.44 µM (inactive)

Request: Which GI50 value belongs to O=C(/N=N/c1ccc([N+](=O)[O-])cc1)NNc1ccc([N+](=O)[O-])cc1 ?
Response: 19 µM (inactive)

---

# Tested on: SNB-78
# ASSAY_SUMMARY: NCI tumour cell line growth inhibition, 48 h
The source made the active and inactive calls. Cut-off read from the data, not from the text of the source: active = GI50 up to about 1.1 µM and inactive = higher. Where a SMILES comes first, the peptide text is derived from it. [ ]: non-standard residue; d: D form. The star is where a group is joined. ξ: configuration not given here. NMeF = CN[C@@H](Cc1ccccc1)C(=O)O; NMeV = CN[C@H](C(=O)O)C(C)C; ξNMeN = CNC(CC(N)=O)C(=O)O; NMeA = CN[C@@H](C)C(=O)O; ξNMeV = CNC(C(=O)O)C(C)C; Boc = CC(C)(C)OC(=O)*
Pick one: active, inactive

Request: Call for entry NC(=O)c1coc(C2OC(CO)C(O)C2O)n1 (centres undefined) :
Response: inactive

Request: Please let me know the test result on file for COC(=O)C1OC(Oc2cc(O)c3c(=O)cc(-c4ccc(O)cc4)oc3c2)C(O)C(O)C1O (centres undefined) .
Response: inactive

Request: Recorded test outcome, item COc1ccc(-c2nc(N)nc(-c3cc(C)ccc3O)c2Cl)cc1
Response: inactive

Request: Could you kindly confirm the outcome this assay logged for O=C1/C(=C/c2ccc(O)c(O)c2)CCC/C1=C\c1ccc(O)c(O)c1 ?
Response: inactive

Request: Recorded test outcome, item COC(=O)[C@H](C)N(C)C(=O)C(CC(N)=O)N(C)C(=O)[C@H](Cc1ccccc1)N(C)C(=O)[C@@H]1CCCN1C(=O)[C@H](C(C)C)N(C)C(=O)C(C(C)C)N(C)C(=O)[C@@H](NC(=O)OC(C)(C)C)C(C)C (some centres undefined) (Boc-V[ξNMeV][NMeV]P[NMeF][ξNMeN][NMeA]-OMe)
Response: inactive

Request: Please let me know the test result on file for Cc1c(O)c(O)cc[n+]1C1OC(CO)C(O)C1O (centres undefined) .
Response: inactive

Request: Look up the recorded call for C=C1CC2(OC1=O)c1ccccc1C=Cc1ccccc12 in this test.
Response: inactive

Request: // return assay outcome for COc1ccc(CCNCCCC2c3ccccc3-c3ccccc32)cc1OC
Response: inactive

Request: // param item: CCOC(=O)NN(C(=O)OCC)C(C(=O)c1ccc(Cl)cc1)=C1NCCN1 ; yields the recorded call
Response: inactive

Request: For O=C1NC(c2cccc3ccccc23)Nc2ccc(O)cc21 (centres undefined) , what call appears in the results of this test?
Response: inactive

Request: Outcome logged for CCCCCCC(/C=N/O)C(C)(O)CCC (centres undefined) in this assay:
Response: inactive

Request: So what was the verdict on O=C1OC(c2cccc(C(F)(F)F)c2)c2ccc3ccccc3c21 (centres undefined) in this test?
Response: inactive

Request: For this molecule, state the assay outcome: Oc1cc(C2OCCCO2)cc(O)c1O
Response: inactive

Request: Please let me know the test result on file for CCOC(=O)NC(=O)c1cn(C2OC(COC(=O)CCCCCCCCC(=O)OCC3OC(n4cc(C(=O)NC(=O)OCC)c(=O)[nH]c4=O)C4OC(C)(C)OC34)C3OC(C)(C)OC32)c(=O)[nH]c1=O (centres undefined) .
Response: inactive

Request: Outcome? CCNC1C2(CCCCC2)NC(=O)C12CCCCC2 (centres undefined)
Response: inactive

Request: Which outcome did this test record for the molecule CCCCC1=C(Br)C(=C(Br)Br)OC1=O ?
Response: inactive

Request: Tell me the assay call for COc1c2c(c(O)c3c4c(c(C)cc13)C1OC3(C(OC)OC5CC(C)(O)C(OC6CC(C)(O)C(O)C(C)O6)C(C)O5)OC1C(OC)(O4)C31CO1)C(=O)C(O)CC2OC1CC(C)(O)C(OC(C)=O)C(C)O1 (centres undefined) please.
Response: active

Request: Give the logged outcome of this assay for the following molecule: O=C(O)C1C2CCC(O2)C1C(=O)N1CCCCC1 (centres undefined)
Response: inactive

Request: Given CNc1cccc(-c2cc(O)c3cc4c(cc3n2)OCO4)c1 , state the outcome it received in this test.
Response: active

---

# Test system: SF-295
# ASSAY_SUMMARY: NCI tumour cell line growth inhibition, 48 h
Activity calls are given as the source filed them. No stated cut-off is given here; in the data, active = GI50 up to about 1.1 µM and inactive = higher.
Task for the reader: assign each of the following compounds its reported GI50.

Request: Which GI50 is reported for this compound? O=C1NC2(CCN(CCc3ccccc3)CC2)Oc2ccccc21
Response: 49.2 µM (inactive)

Request: What value of measured GI50 is listed for CCOC(=O)c1ccc(/N=C2/C(=S)N(c3ccc(C(=O)OCC)cc3)C(=N)N2/N=C/c2ccccc2)cc1 ?
Response: 26.7 µM (inactive)

Request: Give the measured GI50 of C1CCCCC2(CCCCCCCCC3(CCC1)SCCS3)SCCS2 .
Response: > 100 µM (inactive)
